This listing pairs compounds with measured PR relative molar binding affinity (RBA).
- experimental.system: Progesterone receptor (Oryctolagus cuniculus, UniProt P06186)
- Construct: Uterus cytosol of the estradiol-primed rabbit; from tissue; host or cells: uterus cytosol of estradiol-primed rabbit
- Sequence (P06186 whole entry): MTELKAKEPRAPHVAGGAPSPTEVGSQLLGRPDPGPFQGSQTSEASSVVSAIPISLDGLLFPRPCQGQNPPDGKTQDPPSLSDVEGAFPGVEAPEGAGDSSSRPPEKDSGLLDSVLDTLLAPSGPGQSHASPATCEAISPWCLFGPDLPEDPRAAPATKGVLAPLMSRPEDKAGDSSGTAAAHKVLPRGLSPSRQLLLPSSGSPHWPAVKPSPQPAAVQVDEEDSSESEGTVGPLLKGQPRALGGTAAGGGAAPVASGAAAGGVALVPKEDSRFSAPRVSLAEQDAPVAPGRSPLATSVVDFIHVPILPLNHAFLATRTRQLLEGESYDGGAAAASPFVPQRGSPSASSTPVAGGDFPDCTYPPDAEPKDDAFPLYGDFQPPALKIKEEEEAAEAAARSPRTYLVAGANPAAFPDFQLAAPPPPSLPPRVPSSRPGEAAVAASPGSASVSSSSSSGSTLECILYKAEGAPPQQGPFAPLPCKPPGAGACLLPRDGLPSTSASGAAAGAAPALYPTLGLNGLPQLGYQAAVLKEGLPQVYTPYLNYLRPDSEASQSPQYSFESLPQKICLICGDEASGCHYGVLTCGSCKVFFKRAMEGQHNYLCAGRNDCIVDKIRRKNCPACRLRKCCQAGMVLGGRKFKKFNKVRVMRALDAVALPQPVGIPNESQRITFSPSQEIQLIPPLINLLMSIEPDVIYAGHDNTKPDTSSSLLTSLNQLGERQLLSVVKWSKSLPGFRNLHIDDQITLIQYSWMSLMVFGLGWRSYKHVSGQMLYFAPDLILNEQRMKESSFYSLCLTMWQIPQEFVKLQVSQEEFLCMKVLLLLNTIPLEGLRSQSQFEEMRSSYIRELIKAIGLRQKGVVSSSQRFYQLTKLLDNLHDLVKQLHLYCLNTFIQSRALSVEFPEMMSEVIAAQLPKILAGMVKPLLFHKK
- procedure.details: Receptor binding affinity, progesterone receptor (competitive binding, 3H-ORG 2058)
- condition.details: Progesterone = 100%; uterus cytosol of estradiol-primed rabbit
A number alone suffices; assume %.

Sample answers from the record:
-- ask Which PR relative molar binding affinity (RBA) value belongs to CC1(O)CCC2C3CCC4=C(Br)C(=O)CCC4=C3C(c3ccc(C=NO)cc3)CC21C (stereo not shown) ?
-- reply 106

-- ask # repeat for CC12CC(c3ccc(C=NO)cc3)C3=C4CCC(=O)C=C4CCC3C1C=CC2O (stereo not shown)
-- reply 38

-- ask # repeat for `CCNC(=O)O/N=C/c1ccc([C@H]2C[C@@]3(C)[C@@H](CC[C@]3(C)O)[C@@H]3CCC4=CC(=O)CCC4=C32)cc1`
-- reply 161

-- ask # repeat for CC12CC(c3ccc(C=NO)cc3)C3=C4CCC(=O)C=C4CCC3C1CCC2(O)CBr (stereo not shown)
-- reply 21

-- ask # repeat for `CCNC(=O)O[C@H]1CC[C@H]2[C@@H]3CCC4=CC(=O)CCC4=C3[C@@H](c3ccc(/C=N/O)cc3)C[C@]12C`
-- reply 13

-- ask # repeat for `CCNC(=O)O/N=C/c1ccc([C@H]2C[C@@]3(C)[C@@H](CC[C@@]3(O)CO)[C@@H]3CCC4=CC(=O)CCC4=C32)cc1`
-- reply 12

New cases:
-- ask Which PR relative molar binding affinity (RBA) value belongs to `CCNC(=O)O/N=C/c1ccc([C@H]2C[C@]3(C)[C@@H](O)CC[C@H]3[C@@H]3CCC4=CC(=O)CCC4=C32)cc1` ?
-- reply 34
